Species: Homo sapiens
protocol.details: Selectivity index, ratio of IC50 for human recombinant monoamine oxidase-A to IC50 for human recombinant monoamine oxidase-B
quantity.name: Ratio IC50

smiles.representation	Ratio IC50
O=C1OCc2ccc(OCc3ccc(Cl)cc3)cc21	61

A: O=C1OCc2ccc(OCCOc3ccccc3)cc21
B: O=C1OCc2ccc(OCCOc3ccc(Cl)cc3)cc21
Prompt line: Select one. Lower Ratio IC50: A or B Respond with the label that goes with your answer.
Response line: B
(B: 13, A: 106)

The reported numbers originate from ChEMBL document CHEMBL2390879.
